Sourced from ChEMBL document CHEMBL5331127

assay.explanation: AUC(0 to t) in ICR mouse at 2 mg/kg, iv measured upto 24 hrs by LC-MS/MS analysis
Format: ADME, organism-based
Design: time < 24 hrs, dose 2 mg/kg, route iv
conditions: in vivo
attribute.measured: AUCt (µg·h/mL)

molecule="C[C@H]1CC2(CCN(c3ccc(C(=O)N4CCN(C5CN(c6ccc7c(c6)C(=O)N(C6CCC(=O)NC6=O)C7=O)C5)CC4)cc3)CC2)CN1c1ccc(C#N)c(Cl)c1 (stereo partly specified)" endpoint_unit=µg·h/mL recorded_number=8.85

====

assay.explanation: Drug concentration in ICR mouse plasma at 10 mg/kg, po measured after 3 hrs
Type: ADME, organism-based
Consider the following molecules and their measured concentration at 3 h readings.
attribute.measured: concentration at 3 h (ng/mL)

molecule="N#Cc1ccc(O[C@H]2CC[C@H](NC(=O)c3ccc(N4CCC(CN5CCN(c6cc7c(cc6F)C(=O)N(C6CCC(=O)NC6=O)C7=O)CC5)CC4)nn3)CC2)cc1Cl (stereo partly drawn) [BAVDEGALUTAMIDE]" attribute_measured="concentration at 3 h" recorded_number=124
molecule="C[C@H]1CC2(CCN(c3ccc(C(=O)N4CCN(C5CN(c6ccc7c(c6)C(=O)N(C6CCC(=O)NC6=O)C7=O)C5)CC4)cc3)CC2)CN1c1ccc(C#N)c(F)c1 (stereo partly drawn)" attribute_measured="concentration at 3 h" recorded_number=146
molecule="C[C@H]1CC2(CCN(c3ccc(C(=O)N4CCN(C5CCN(c6ccc7c(c6)C(=O)N(C6CCC(=O)NC6=O)C7=O)CC5)CC4)cc3)CC2)CN1c1ccc(C#N)c(Cl)c1 (stereo partly drawn)" attribute_measured="concentration at 3 h" recorded_number=208
